Target: Short transient receptor potential channel 4 (Mus musculus) (UniProt Q9QUQ5)
Assay: calcium flux activators in TRPC4/5HT1a cells, counter-screen for TRPC4 activator project, cell-based, second counter screen, HEK293 TRPC4/5HT1a, Fluo-4 (AID 434977)
Conditions: Fluo-4 calcium flux, at 10 µM
Active and inactive are the calls of the source.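 Rule for the calls: active = calcium signal rise above buffer-control mean plus 5 SD in both duplicates, and also a hit in the primary screen; inactive = the rest.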
# output must be one of true = active, false = inactive

>  <Molecule>
CCOC(=O)c1c(N)sc(C(O)(C(F)(F)F)C(F)(F)F)c1-c1ccccc1

>  <Experimental System>
Short transient receptor potential channel 4 (Mus musculus) (UniProt Q9QUQ5)

>  <Class Assignment>
false

$$$$
>  <Molecule>
CC(=O)Nc1ccc(S(=O)(=O)N2CCN(CCCOc3cc(C)ccc3C)CC2)cc1

>  <Experimental System>
Short transient receptor potential channel 4 (Mus musculus) (UniProt Q9QUQ5)

>  <Class Assignment>
false

$$$$
>  <Molecule>
CCOc1ccc(CN2CCNC(=O)C2CC(=O)NCCc2ccccn2)cc1 (stereo not given)

>  <Experimental System>
Short transient receptor potential channel 4 (Mus musculus) (UniProt Q9QUQ5)

>  <Class Assignment>
true

$$$$
>  <Molecule>
CC(=O)Cc1nsc(NC(=O)c2csc3c2CCCC3)n1

>  <Experimental System>
Short transient receptor potential channel 4 (Mus musculus) (UniProt Q9QUQ5)

>  <Class Assignment>
false

$$$$
>  <Molecule>
Cn1c(N2CCN(C(=O)Nc3ccc(F)cc3)CC2)nc2ccccc21

>  <Experimental System>
Short transient receptor potential channel 4 (Mus musculus) (UniProt Q9QUQ5)

>  <Class Assignment>
true

$$$$
>  <Molecule>
CCN(CC)CCNC(=O)c1cc2c(-c3cccc(OC)c3)nn(C)c2s1

>  <Experimental System>
Short transient receptor potential channel 4 (Mus musculus) (UniProt Q9QUQ5)

>  <Class Assignment>
false

$$$$

Q: Short answer needed: outcome of this test for COc1ccc(CCN2CCCC(CN(C)C(=O)c3ccoc3)C2)cc1 (stereo not given) ?
Result: false

Q: Short answer needed: outcome of this test for `Cc1oc(-c2cccc(F)c2)nc1CN(Cc1ccccc1)C[C@@H]1CCC(=O)N1` ?
Result: false

Q: Short answer needed: outcome of this test for O=C(N/N=C/c1ccco1)C1COc2ccccc2O1 (stereo not given) ?
Result: true

Q: Short answer needed: outcome of this test for `COC(=O)[C@@]12CCCCN1[C@H](c1ccc(-c3cccc(Cl)c3)c(OC)c1)[C@H]1C(=O)N(C)C(=O)[C@H]12` ?
Result: false
